B1: Osa-1-4 twister ribozyme (parent)
chain: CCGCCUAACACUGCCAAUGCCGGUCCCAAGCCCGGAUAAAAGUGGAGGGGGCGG

Variants of: B1
PROTOCOL NOTES: self-cleavage, relative activity (ratio to wild type); higher = more cleavage; co-transcriptional
MEASURED PARAMETER: self-cleavage

1) G19U G48A: 0.04
2) A17U C26U: 1
3) A28U G35U: 0.71
4) C26A G54A: 0.06
5) A10C C31U: 0.03
6) G35A G51U: 0.12
7) A29U G30A: 0.03
8) A40C G51A: 0.06
9) C15U C52G: 0.41
10) C20U C21A: 0.87
11) G45A G54U: 0.34
12) A17C C33A: 0.05
13) G13A U43C: 0.05
14) A46G U43A: 0.06
15) A7U G19A: 0.06
16) C27A G30U: 0.03
17) G44U G53C: 0.08
18) G19C G45U: 0.03
19) A40U A7U: 0.08
20) A8U G30U: 0.02
21) A29U C25G: 0.05
22) A38U G44U: 0.89
23) G13U U12C: 0.05
24) C21G G49C: 0.03
25) A8U G50A: 0.26
26) C33G G49A: 0.05
27) C14U U12A: 0.09
28) A28U C9A: 0.16
29) C31U C33U: 0.31
30) A17G A8C: 0.12
31) A41U C21G: 0.1
32) G49A U24C: 0.05
33) A46C G49U: 0.04
34) A29G G54C: 0.08
35) A40U G45A: 0.07
